assay: Selectivity index, ratio of compound concentration showing <25% hemolysis in mouse RBC to MIC for fluconazole/ITC-resistant Candida albicans ATCC 90819; format: toxicity; settings: mouse red blood cells (RBC), read-out: Selectivity Index
readout name: selectivity ratio

Specify measured selectivity ratio for Fc1ccc(N/N=C/c2ccc(-c3cccc(/C=N/Nc4ccc(F)cc4F)c3)cc2)c(F)c1 .
1 to 32

---

experiment: Selectivity index, ratio of compound concentration showing <25% hemolysis in mouse RBC to MIC for fluconazole/ITC-resistant Candida albicans ATCC MYA-1237; type: toxicity; conditions: mouse red blood cells (RBC), read-out: Selectivity Index
readout name: selectivity ratio

Query selectivity ratio for Fc1ccc(N/N=C/c2ccc(-c3cccc(/C=N/Nc4ccc(F)cc4F)c3)cc2)c(F)c1
1 to 32

---

assay: Selectivity index, ratio of CC50 for human A549 cells to MIC for fluconazole/ITC-susceptible Candida albicans ATCC MYA-2310; format: toxicity; details: read-out: Selectivity Index
What selectivity ratio was measured for each of the following?
Note: the reply should be a number with no unit written.

Identify the reported selectivity ratio for the following entry. C(=N\Nc1ccccc1)/c1ccc(-c2ccc(/C=N/Nc3ccccc3)cc2)cc1
0.6

Give the reported value of selectivity ratio for this record: Fc1ccccc1N/N=C/c1ccc(-c2cccc(/C=N/Nc3ccccc3F)c2)cc1
0.5

Entry C/C(=N\Nc1ccc(F)cc1)c1ccc(-c2ccc(/C(C)=N/Nc3ccc(F)cc3)cc2)cc1 needs its selectivity ratio filled in; supply it.
8.5

Please look at this compound and report its selectivity ratio: Fc1ccc(N/N=C/c2ccc(-c3cccc(/C=N/Nc4ccc(F)cc4F)c3)cc2)c(F)c1
1.1

// Input: Fc1ccc(N/N=C/c2ccc(-c3cccc(/C=N/Nc4ccc(F)cc4)c3)cc2)cc1 . Output its selectivity ratio only.
4

---

Please go through the items and note down their hemolysis at 1 h, […].
experiment: Hemolytic activity in mouse RBC at […] after 1 hr relative to control; assay type: ADME, cell-based, Erythrocyte; conditions: red blood cells (erythrocytes), read-out: Activity; also: tested at 0.48 µg/mL
# value in %; strip the unit string

For the compound COc1ccc(N/N=C/c2ccc(-c3ccc(/C=N/Nc4ccc(OC)cc4)cc3)cc2)cc1 , give its measured hemolysis at 1 h, […] value.
1.2

Please give measured hemolysis at 1 h, […] of the following entry: Fc1ccc(N/N=C/c2ccc(-c3cccc(/C=N/Nc4ccc(F)cc4F)c3)cc2)c(F)c1
1.6

Let me know recorded hemolysis at 1 h, […] for Fc1cccc(N/N=C/c2ccc(-c3cccc(/C=N/Nc4cccc(F)c4)c3)cc2)c1 , thanks.
0

Report hemolysis at 1 h, […] for COc1ccc(N/N=C/c2ccc(-c3cccc(/C=N/Nc4ccc(OC)cc4)c3)cc2)cc1
0

Answer with reported hemolysis at 1 h, […] of Fc1ccc(N/N=C/c2ccc(-c3cccc(/C=N/Nc4ccc(F)cc4)c3)cc2)cc1
0.1

# return recorded hemolysis at 1 h, […] for input C(=N\Nc1ccccc1)/c1ccc(-c2cccc(/C=N/Nc3ccccc3)c2)cc1
0

Tell me hemolysis at 1 h, […] reported for C(=N\Nc1ccccc1)/c1ccc(-c2ccc(/C=N/Nc3ccccc3)cc2)cc1
2

Give recorded hemolysis at 1 h, […]. C[C@@H](c1ncncc1F)[C@](O)(Cn1cncn1)c1ccc(F)cc1F [VORICONAZOLE]
8.7

Return reported hemolysis at 1 h, […]. Input compound: Fc1cccc(N/N=C/c2ccc(-c3ccc(/C=N/Nc4cccc(F)c4)cc3)cc2)c1
0.2

Using the record for N=C(N)N/N=C/c1ccc(-c2cccc(/C=N/NC(=N)N)c2)cc1 , state its measured hemolysis at 1 h, […].
0

Give the value of hemolysis at 1 h, […] reported for the following: C/C(=N\Nc1ccc(F)cc1)c1ccc(-c2ccc(/C(C)=N/Nc3ccc(F)cc3)cc2)cc1
0

Read off the recorded hemolysis at 1 h, […] for Fc1ccc(N/N=C/c2ccc(-c3ccc(/C=N/Nc4ccc(F)cc4)cc3)cc2)cc1
0
